Target: CYP1B1 (Homo sapiens)
Sequence (Q16678 whole entry): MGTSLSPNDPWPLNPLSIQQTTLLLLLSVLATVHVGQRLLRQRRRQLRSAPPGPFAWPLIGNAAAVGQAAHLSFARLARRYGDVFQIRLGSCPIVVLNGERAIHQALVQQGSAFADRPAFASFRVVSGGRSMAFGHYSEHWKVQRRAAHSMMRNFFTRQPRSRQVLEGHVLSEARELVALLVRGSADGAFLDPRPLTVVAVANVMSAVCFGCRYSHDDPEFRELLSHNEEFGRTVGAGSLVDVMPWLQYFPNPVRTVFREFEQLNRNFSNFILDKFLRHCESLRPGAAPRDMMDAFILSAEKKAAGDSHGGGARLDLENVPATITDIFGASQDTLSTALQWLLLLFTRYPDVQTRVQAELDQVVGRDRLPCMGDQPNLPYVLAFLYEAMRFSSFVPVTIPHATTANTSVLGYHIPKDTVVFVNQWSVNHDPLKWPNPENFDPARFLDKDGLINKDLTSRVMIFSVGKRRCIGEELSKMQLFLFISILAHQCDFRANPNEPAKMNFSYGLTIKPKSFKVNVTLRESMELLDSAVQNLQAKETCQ
Experiment: Inhibition of recombinant human CYP1B1 expressed in bacterial microsomes co-expressing P450 reductase at 3 uM using 7-ethyl-O-resorufin as substrate after 45 mins in presence of NADPH by fluorescence assay relative to control
Conditions: probe 7-ethyl-O-resorufin
measurement_type: inhibition at 0.75 h, 3 µM

C[C@]12CC[C@@H]3c4ccc(O)cc4CC[C@H]3[C@@H]1C[C@H](CCCNC(=O)C(Cc1ccccc1)NC(=O)Cc1ccccc1)[C@@H]2O (stereo partly specified)
7.7%
C[C@]12CC[C@@H]3c4ccc(NC(=O)O)cc4CC[C@H]3[C@@H]1CCC2=O
8.9%
C[C@]12CC[C@@H]3c4ccccc4CC[C@H]3[C@@H]1CCC2=O
11.3%
C[C@]12CC[C@@H]3c4ccc(N)cc4CC[C@H]3[C@@H]1CCC2=O
16.2%
O=c1cc(-c2ccccc2)oc2c1ccc1ccccc12 [ALPHA-NAPHTHOFLAVONE]
89.2%
C[C@]12CC[C@@H]3c4ccc(OS(N)(=O)=O)cc4CC[C@H]3[C@@H]1CCC2=O [EMATE]
8.6%
C[C@]12CC[C@@H]3c4cc(Br)c(O)cc4CC[C@H]3[C@@H]1CC[C@@H]2O
22.6%
C[C@]12CC[C@@H]3c4ccc(OS(=O)(=O)O)cc4CC[C@H]3[C@@H]1CC[C@@H]2O
0.9%
C[C@]12CC[C@@H]3c4ccc(O)cc4CC[C@H]3[C@@H]1CC[C@@]21CCC(=O)O1
13.9%
CCCCCCCN[C@H]1CC[C@H]2[C@@H]3CCc4ccc(OC)cc4[C@H]3CC[C@]12C
9.4%
COc1cc2c(cc1OS(N)(=O)=O)CC[C@@H]1[C@@H]2CC[C@]2(C)[C@@H](O)CC[C@@H]12
23.8%
C#C[C@]1(O)CC[C@H]2[C@@H]3CCc4c(ccc(O)c4Br)[C@H]3CC[C@@]21C
7.5%
C[C@]12CC[C@@H]3c4ccc(O)cc4CC[C@H]3[C@@H]1C[C@@H](CCCBr)[C@@H]2O
2%
CCc1ccc2c(c1)CC[C@@H]1[C@@H]2CC[C@]2(C)C(=O)CC[C@@H]12
42.8%
C[C@]12CC[C@@H]3c4ccc(OS(N)(=O)=O)cc4CC[C@H]3[C@@H]1C[C@H](CCCNC(=O)C1CCCN1C(=O)Cc1ccccc1)[C@@H]2O (stereo partly specified)
21.4%
COc1cc2c(cc1OS(N)(=O)=O)CC[C@@H]1[C@@H]2CC[C@@]2(C)[C@H]1CC[C@@]2(O)Cc1ccccc1
7.7%
C[C@]12CC[C@@H]3c4ccccc4C(O)C[C@H]3[C@@H]1CC[C@@H]2O (stereo partly specified)
20%
C[C@]12CC[C@@H]3c4cc(Br)c(O)c(Br)c4CC[C@H]3[C@@H]1CC[C@@H]2O
1%
COc1cc2c(cc1O)CC[C@@H]1[C@@H]2CC[C@]2(C)[C@@H](O)CC[C@@H]12 [2-METHOXYESTRADIOL]
4.4%
Cc1cc2c(cc1O)CC[C@@H]1[C@@H]2CC[C@]2(C)[C@@H](O)CC[C@@H]12
1%
CNS(=O)(=O)Oc1cc2c(cc1OS(=O)(=O)NC)[C@H]1CC[C@]3(C)C(=O)CC[C@H]3[C@@H]1CC2
30.3%
C[C@]12CC[C@@H]3c4ccc(C5CO5)cc4CC[C@H]3[C@@H]1CCC2=O (stereo partly specified)
12.4%
C[C@]12CC[C@@H]3c4cc(F)c(O)cc4CC[C@H]3[C@@H]1CC[C@@H]2O
28.7%
C[C@]12CC[C@@H]3c4ccc(O)c(Br)c4CC[C@H]3[C@@H]1CC[C@@H]2O
29%
CCCCCCCN(C=O)[C@H]1CC[C@H]2[C@@H]3CCc4cc(OC)ccc4[C@H]3CC[C@]12C
3.5%
CCCCCCCN(C=O)[C@H]1CC[C@H]2[C@@H]3CCc4cc(O)ccc4[C@H]3CC[C@]12C
0%
COc1cc2c(cc1O)CC[C@@H]1[C@@H]2CC[C@@]2(C)[C@H]1CC[C@@]2(O)Cc1ccccc1
0%
C[C@]12CC[C@@H]3c4ccc(OS(N)(=O)=O)cc4CC[C@H]3[C@@H]1CC[C@@]2(O)CN1CCN(C(=O)[C@H](Cc2ccccc2)NC(=O)CCC2CCCC2)CC1
14.9%
C[C@]12CC[C@@H]3c4ccc(C(=O)O)cc4CC[C@H]3[C@@H]1CCC2=O
11.5%
C[C@]12CC[C@@H]3c4ccccc4C(=O)C[C@H]3[C@@H]1CCC2=O
16%
C[C@]12CC[C@@H]3c4ccc(O)cc4C(=O)C[C@H]3[C@@H]1CC[C@@H]2O
9.7%

Origin of values: ChEMBL document CHEMBL3877258
